Just for reference, BindingDB's records for doi:10.1021/bi400413c is where these values come from.

molecular target: Enoyl-[acyl-carrier-protein] reductase [NADPH] FabI (Staphylococcus aureus (strain MRSA252), UniProt Q6GI75); test: Thermal Shift Assay; conditions: pH 7.5
observable: Ki

{"columns": ["smiles.entry", "Ki"],
 "data": [
  ["CCCCCCCCc1ccc(Oc2ccccc2)c(O)c1", "0.82 nM"],
  ["Oc1cc(F)ccc1Oc1ccccc1", "1.42 nM"],
  ["Oc1ccccc1Oc1ccccc1", "18.9 nM"]
]}

Ki lookup needed for CCCc1ccc(Oc2ccccc2)c(O)c1 , thanks.
0.07 nM

Ki lookup needed for CCCCCCc1ccc(Oc2ccccc2N)c(O)c1 , thanks.
0.12 nM

Ki lookup needed for CCCCCc1ccc(Oc2ccccc2)c(O)c1 , thanks.
0.04 nM

Ki lookup needed for CCCCCCc1ccc(Oc2ccccc2)c(O)c1 , thanks.
0.01 nM

Ki lookup needed for Cc1ccccc1Oc1ccc(CCc2ccccc2)cc1O , thanks.
0.5 nM

---

Reported log10 of Ki by item:
Target: Enoyl-[acyl-carrier-protein] reductase [NADPH] FabI (Staphylococcus aureus (strain MRSA252), UniProt Q6GI75)
Sequence (Q6GI75 whole entry): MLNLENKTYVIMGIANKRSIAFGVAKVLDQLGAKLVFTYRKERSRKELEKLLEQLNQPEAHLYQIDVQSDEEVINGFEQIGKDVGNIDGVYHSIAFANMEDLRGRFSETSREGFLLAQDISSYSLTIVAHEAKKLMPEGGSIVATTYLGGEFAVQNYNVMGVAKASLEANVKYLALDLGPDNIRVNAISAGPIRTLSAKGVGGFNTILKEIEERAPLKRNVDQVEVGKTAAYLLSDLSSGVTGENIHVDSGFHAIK
Test: Thermal Shift Assay
Settings: pH 7.5
Use the decimal logarithm of Ki (nM).

{"columns": ["molecule", "log10 of Ki"],
 "data": [
  ["Oc1cc(Cc2ccccc2)ccc1Oc1ccccc1 [PT89]", -1.00],
  ["C=CCc1ccc(Oc2ccccc2)c(O)c1 [PT68]", -0.96],
  ["N#Cc1ccccc1Oc1ccc(F)cc1O [PT446]", 0.00],
  ["Cc1ccc(Oc2ccccc2)c(O)c1 [PT53]", -0.42]
]}

log10 of Ki lookup needed for N#Cc1ccccc1Oc1ccc(Br)cc1O [PT443] , thanks.
-1.30

log10 of Ki lookup needed for Oc1cc(Br)ccc1Oc1ccccc1 [5-bromo-2-phenoxylphenol] , thanks.
-1.22
